Attribute: pSTAT3 (MFI) in CD4 T cells at 0.001 µM
Biological target: T1, IL10Rα and IL2Rγ on human primary cells (CD8 T cells, CD4 T cells, monocytes) (human) (UniProt Q13651)
T1 sequence (looked up) 1: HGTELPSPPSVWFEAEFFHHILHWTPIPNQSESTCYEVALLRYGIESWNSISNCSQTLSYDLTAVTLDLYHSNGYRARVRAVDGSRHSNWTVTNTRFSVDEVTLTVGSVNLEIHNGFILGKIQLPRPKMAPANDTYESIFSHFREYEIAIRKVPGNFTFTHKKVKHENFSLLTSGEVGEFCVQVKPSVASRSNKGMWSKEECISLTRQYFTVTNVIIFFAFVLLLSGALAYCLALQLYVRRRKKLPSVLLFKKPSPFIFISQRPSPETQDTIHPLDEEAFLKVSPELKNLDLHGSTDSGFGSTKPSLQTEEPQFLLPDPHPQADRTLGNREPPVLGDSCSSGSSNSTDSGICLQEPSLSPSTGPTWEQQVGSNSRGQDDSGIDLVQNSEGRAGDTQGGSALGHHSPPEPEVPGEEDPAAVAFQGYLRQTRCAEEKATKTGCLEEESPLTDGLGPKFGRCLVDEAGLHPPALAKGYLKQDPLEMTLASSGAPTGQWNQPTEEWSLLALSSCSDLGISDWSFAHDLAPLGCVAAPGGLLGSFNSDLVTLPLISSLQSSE
T1 sequence (looked up) 2: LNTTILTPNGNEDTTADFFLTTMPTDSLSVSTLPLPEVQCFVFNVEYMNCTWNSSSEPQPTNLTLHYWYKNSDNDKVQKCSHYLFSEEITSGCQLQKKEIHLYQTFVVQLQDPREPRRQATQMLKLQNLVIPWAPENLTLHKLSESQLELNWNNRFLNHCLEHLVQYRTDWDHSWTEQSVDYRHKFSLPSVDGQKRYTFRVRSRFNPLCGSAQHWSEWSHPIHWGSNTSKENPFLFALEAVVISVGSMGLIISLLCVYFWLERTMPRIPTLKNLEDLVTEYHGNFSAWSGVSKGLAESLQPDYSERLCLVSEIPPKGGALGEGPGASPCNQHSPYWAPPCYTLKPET
Experiment: cell-based or functional assay
Enter your answer as a number in MFI; do not include the unit.

As a guide, the following entries are already answered.
Binder	Quantity unit	pSTAT3 (MFI) in CD4 T cells at 0.001 µM
hIL10Ra_VHH14-hIL2Rg_VHH19, no linker, tag his (bispecific antibody, not shown: small tags and cut ends) QVQLQESGGGSVQAGGSLRLSCGASGYTYSSYCMGWFRQVPGKEREGVAVIDSDGSTSYADSVKGRFTISKDNGKNTLYLQMNSLKPEDTAMYYCAADLGHYRPPCGVLYLGMDYWGKGTQVTVSSQVQLQESGGGSVQAGGSLRLSCTASGFTFDDREMNWYRQAPGNECELVSTISSDGSTYYADSVKGRFTISQDNAKNTVYLQMDSVKPEDTAVYYCAADFMIAIQAPGAGCWGQGTQVTVSS	MFI	12900
hIL10Ra_VHH14-hIL2Rg_VHH19, linker …, tag his (bispecific antibody, not shown: small tags and cut ends) QVQLQESGGGSVQAGGSLRLSCGASGYTYSSYCMGWFRQVPGKEREGVAVIDSDGSTSYADSVKGRFTISKDNGKNTLYLQMNSLKPEDTAMYYCAADLGHYRPPCGVLYLGMDYWGKGTQVTVSSGGSGGSGGSGQVQLQESGGGSVQAGGSLRLSCTASGFTFDDREMNWYRQAPGNECELVSTISSDGSTYYADSVKGRFTISQDNAKNTVYLQMDSVKPEDTAVYYCAADFMIAIQAPGAGCWGQGTQVTVSS	MFI	11800

Query (binder): hIL10Ra_VHH14-hIL2Rg_VHH19, linker GS, tag his (bispecific antibody, not shown: small tags and cut ends) QVQLQESGGGSVQAGGSLRLSCGASGYTYSSYCMGWFRQVPGKEREGVAVIDSDGSTSYADSVKGRFTISKDNGKNTLYLQMNSLKPEDTAMYYCAADLGHYRPPCGVLYLGMDYWGKGTQVTVSSGSQVQLQESGGGSVQAGGSLRLSCTASGFTFDDREMNWYRQAPGNECELVSTISSDGSTYYADSVKGRFTISQDNAKNTVYLQMDSVKPEDTAVYYCAADFMIAIQAPGAGCWGQGTQVTVSS ; field requested: pSTAT3 (MFI) in CD4 T cells at 0.001 µM
12800
